Record form. Attribute: log10 of Counts/minute bound. Fill in for each entry.
- tgt: T1, recombinant human IL-6 (human, UniProt P05231 30-212, labeled with radioactive iodine)
- T1 construct: Labeled probe in solution, added to wells that carry the synthetic peptides; also called IL-6 ligand; Interleukin-6
- assay-comment: radioiodinated IL-6 on peptide array
Log scale reminder: Counts/minute bound in counts/minute, then log10 taken.

Query: Which log10 of Counts/minute bound is reported for this binder? SSFYRLRFELRYRAERS [Peptide C5]
Result: 3.67

Query: Which log10 of Counts/minute bound is reported for this binder? TTKAVLLVRKFQNS [Peptide B24]
Result: 3.85

Query: Which log10 of Counts/minute bound is reported for this binder? VRKFQNS (also called VRKFQNS) [Peptide B32]
Result: 3.07

Query: Which log10 of Counts/minute bound is reported for this binder? AAGSHPSRWAAMGRRLLLRSV (alanine-scan variant of the domain I 21-mer) [Peptide A44]
Result: 4.08

Query: Which log10 of Counts/minute bound is reported for this binder? SRWAGMGRRLLLRSV [Peptide A23]
Result: 3.92

Query: Which log10 of Counts/minute bound is reported for this binder? AGSHPSRWAGMGRRLLLRSV [Peptide A18]
Result: 4.13

Query: Which log10 of Counts/minute bound is reported for this binder? LVRKFQNS [Peptide B31]
Result: 3.40

Query: Which log10 of Counts/minute bound is reported for this binder? AAGSHPSRWAGMGRRLLARSV (alanine-scan variant of the domain I 21-mer) [Peptide A37]
Result: 3.89

Query: Which log10 of Counts/minute bound is reported for this binder? SSFYRLR (also called SSFYRLR) [Peptide C15]
Result: 3.00

Query: Which log10 of Counts/minute bound is reported for this binder? AAGSHPSRWAGMGARLLLRSV (alanine-scan variant of the domain I 21-mer) [Peptide A41]
Result: 3.65

Query: Which log10 of Counts/minute bound is reported for this binder? SSFYRLRFELRYRAER [Peptide C6]
Result: 3.42

Query: Which log10 of Counts/minute bound is reported for this binder? AAGSHPSAWAGMGRRLLLRSV (alanine-scan variant of the domain I 21-mer) [Peptide A46]
Result: 3.98

Query: Which log10 of Counts/minute bound is reported for this binder? SSFYRLRFELRYRAARSKTFT (alanine-scan variant of the domain III 21-mer) [Peptide C40]
Result: 4.24

Query: Which log10 of Counts/minute bound is reported for this binder? PRSTPSLTTKAVL [Peptide B9]
Result: 3.15

Query: Which log10 of Counts/minute bound is reported for this binder? PRSTPS (also called PRSTPS) [Peptide B16]
Result: 3.01

Query: Which log10 of Counts/minute bound is reported for this binder? AAGSHP (also called AAGSHP) [Peptide A16]
Result: 3.20
